# test-summary: Determination of the log P values by HPLC (formic acid method)
# Type: physicochemical
# assay-context: reversed-phase column (C 18), acidic range (pH 3.4), 55° C.
Would you kindly list log P for each of these molecules?
Write the value as a bare number.

Per the records, this molecule ( O=C(Nc1ccn(-c2ccccc2C(F)(F)F)n1)c1ccccc1C(F)(F)F ) has log P equal to 2.75

Per the records, this molecule ( Cc1cccnc1C(=O)Nc1ccn(-c2ccccc2Br)n1 ) has log P equal to 1.44

Per the records, this molecule ( O=C(Nc1cnn(-c2ncc(F)cc2F)n1)c1cccnc1C(F)(F)F ) has log P equal to 2.00

Per the records, this molecule ( Cn1nc(C(F)(F)F)c(C#N)c1C(=O)Nc1ccn(-c2ncc(F)cc2F)n1 ) has log P equal to 2.76

Per the records, this molecule ( O=C(Nc1ccn(-c2c(Cl)cccc2Cl)n1)c1cccnc1C(F)(F)F ) has log P equal to 2.57

Per the records, this molecule ( Cn1ncc(Cl)c1C(=O)Nc1ccn(-c2c(F)cccc2F)n1 ) has log P equal to 2.46

Per the records, this molecule ( O=C(Nc1ccn(-c2ccccc2Cl)n1)c1sccc1I ) has log P equal to 3.34

Per the records, this molecule ( O=C(Nc1ccn(-c2ncccc2F)n1)c1cccnc1C(F)(F)F ) has log P equal to 1.83

Per the records, this molecule ( O=C(Nc1ccn(-c2ncc(F)cc2F)n1)c1cccnc1Br ) has log P equal to 1.77

Per the records, this molecule ( O=C(Nc1ccn(-c2c(F)cccc2F)n1)c1ccccc1OC(F)(F)F ) has log P equal to 2.96

Per the records, this molecule ( O=C(Nc1ccn(-c2cc(F)c(F)cc2F)n1)c1ccccc1C(F)(F)F [Compound I-1-193] ) has log P equal to 3.73

Per the records, this molecule ( O=C(Nc1cnn(-c2ncc(F)cc2F)n1)c1cccnc1Br ) has log P equal to 1.71

Per the records, this molecule ( O=C(Nc1cnn(-c2ncccc2Cl)n1)c1ccccc1Br ) has log P equal to 2.26

Per the records, this molecule ( Cc1ccccc1C(=O)Nc1ccn(-c2ncc(F)cc2F)n1 ) has log P equal to 2.36

Per the records, this molecule ( Cc1cc(C(=O)Nc2ccn(-c3ccccc3Cl)n2)c(C)o1 ) has log P equal to 3.05

Per the records, this molecule ( O=C(Nc1cnn(-c2ncccc2Cl)n1)c1cccnc1Cl ) has log P equal to 1.66

Per the records, this molecule ( O=C(Nc1ccn(-c2ncc(C(F)(F)F)cc2Cl)n1)c1ccccc1Cl ) has log P equal to 3.30

Per the records, this molecule ( Cc1nn(C(F)F)c(C(=O)Nc2ccn(-c3c(F)cccc3F)n2)c1F ) has log P equal to 2.89

----------
# test-summary: Determination of the log P values by HPLC (formic acid method)
# Assay type: physicochemical
# assay-context: reversed-phase column (C 18), acidic range (pH 3.4), 55° C.
Would you kindly list log P for each of these molecules?
Write the value as a bare number.

Per the records, this molecule ( O=C(Nc1ccn(-c2ncccc2Cl)n1)c1cccnc1Br [Compound I-1-565] ) has log P equal to 1.68

Per the records, this molecule ( O=C(Nc1ccn(-c2c(F)cccc2F)n1)c1ncccc1Cl [Compound I-1-92] ) has log P equal to 2.40

Per the records, this molecule ( O=C(Nc1ccn(-c2ccccc2Cl)n1)c1cccc(Cl)c1Cl [Compound I-1-350] ) has log P equal to 3.20

Per the records, this molecule ( Cc1c(F)cnc(F)c1-n1ccc(NC(=O)c2ccccc2C(F)(F)F)n1 [Compound I-1-217] ) has log P equal to 3.06

Per the records, this molecule ( O=C(Nc1ccn(-c2ncc(Cl)cc2F)n1)c1ccsc1I [Compound I-1-592] ) has log P equal to 2.99
